System: A673 NR0B1-luciferase reporter, viability-normalised luminescence
assayText: suppressors of NR0B1-promoter luciferase reporter, dose response, EWS/Fli inhibitor project, luciferase luminescence, A673 cells, cherry-pick (AID 686920)
AC35: recorded values

{"columns": ["smilesString", "targetSystem", "AC35"],
 "data": [
  ["CC1(C)N=C(N)N=C(N)N1c1ccc(CCCCc2ccccc2)cc1", "A673 NR0B1-luciferase reporter, viability-normalised luminescence", "2.72 µM"],
  ["C#CCOCCOCCOCCNc1nc(N2CCN(C(=O)CCCCCCCCCCNC(=O)Cn3cc(C[C@@H](C)O)nn3)CC2)nc(N2CCN(C(=O)CCCCCCCCCCNC(=O)[C@H](CO)n3cc(CCCSC)nn3)CC2)n1", "A673 NR0B1-luciferase reporter, viability-normalised luminescence", "9.81 µM"],
  ["COc1ccc(Nc2ncnc3ccc(Br)cc23)c(OC)c1", "A673 NR0B1-luciferase reporter, viability-normalised luminescence", "5.94 µM"],
  ["COc1cc(/C=N/NS(=O)(=O)c2ccc(C)cc2)ccc1OCc1cccc(C(=O)O)c1", "A673 NR0B1-luciferase reporter, viability-normalised luminescence", "4.09 µM"],
  ["COc1cccc(OC)c1C(=O)Nc1cc(C)nn1-c1nc2ccccc2[nH]1", "A673 NR0B1-luciferase reporter, viability-normalised luminescence", "26.7 µM"],
  ["C[C@]12CC[C@H](O)C[C@H]1CC[C@@H]1[C@@H]2CC[C@]2(C)[C@@H](C3=CC(=O)OC3)CC[C@]12O", "A673 NR0B1-luciferase reporter, viability-normalised luminescence", "0.395 µM"],
  ["COC(=O)C[C@@H]1CC[C@@H]2[C@H](COc3ccc(NC(=O)c4ccc(F)c(F)c4)cc3C(=O)N2C)O1", "A673 NR0B1-luciferase reporter, viability-normalised luminescence", "64.7 µM"],
  ["CCc1ccc2oc(C(=O)N3CCN(c4ccccc4OC)CC3)cc(=O)c2c1", "A673 NR0B1-luciferase reporter, viability-normalised luminescence", "10.7 µM"]
]}

---

Test system: A673 NR0B1-luciferase reporter, viability-normalised luminescence
assayText: suppressors of NR0B1-promoter luciferase reporter, dose response, EWS/Fli inhibitor project, luciferase luminescence, A673 cells, cherry-pick (AID 686920)

{"columns": ["compound", "AC35"],
 "data": [
  ["CN(C)CC1CCC/C(=C\\c2ccc(OC(=O)c3ccc(Cl)cc3)cc2)C1=O (stereo not given)", "5.76 µM"],
  ["O=C(CN1C(=O)c2ccccc2S1(=O)=O)c1ccc(F)cc1", "3.98 µM"],
  ["C(=N\\Nc1nc2ccccc2s1)/c1ccccn1", "0.77 µM"],
  ["O=C(NCc1cccnc1)C1Cc2c(-c3ccc(Cl)cc3)ccnc2O1 (stereo not given)", "6.04 µM"],
  ["O=S(=O)(c1ccc(F)cc1)N1C[C@H]2[C@@H](c3ccccc31)[C@H](CO)N2Cc1ccccc1Cl", "33.7 µM"],
  ["COC(=O)C[C@@H]1CC[C@@H]2[C@H](COc3ccc(NC(=O)c4ccc(C(F)(F)F)cc4)cc3C(=O)N2C)O1", "12.1 µM"],
  ["Cc1nc(N)nc(N)c1CCCc1ccc(Cl)c(Cl)c1", "2.49 µM"],
  ["CN1C2CCC1/C(=C/c1ccccn1)C(=O)/C2=C\\c1ccccn1", "1.87 µM"],
  ["Cc1cc(C(=O)Nc2ccc3c(c2)C(=O)N(C)[C@@H]2CC[C@@H](CC(=O)NCc4ccc(-c5ccccc5)cc4)O[C@H]2CO3)no1", "6.29 µM"],
  ["COc1ccc(/C=C2/NC(=O)N(CC(=O)Nc3cccc(C)c3)C2=O)cc1O", "9.76 µM"]
]}
